Origin of the recorded values: patent US10168342B2

# TEST SYSTEM: AEA-DA lipid probe targets in Neuro2a cells (Mus musculus, UniProt Q8R2Y8)
# Sequence (Q8R2Y8 whole entry): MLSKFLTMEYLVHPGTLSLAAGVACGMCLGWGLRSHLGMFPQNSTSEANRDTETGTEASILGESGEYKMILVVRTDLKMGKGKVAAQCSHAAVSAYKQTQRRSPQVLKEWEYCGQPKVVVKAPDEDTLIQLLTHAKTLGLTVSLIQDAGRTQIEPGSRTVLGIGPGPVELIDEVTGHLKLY
# TEST SETTINGS: competitor 25 μM
MEASUREMENT NAME: SILAC ratio Ptrh2
One number for each entry.

CN1CCN(C(=O)c2[nH]c3ccc([N+](=O)[O-])cc3c2-c2ccccc2)CC1 : 1.0
C=CCN(C)CCCCCCOc1ccc(C(=O)c2ccc(Br)cc2)c(F)c1 [Ro 48-8071, reference compound] : 0.9
CN1CCN(C(=O)c2c(-c3ccccc3)c3cc([N+](=O)[O-])ccc3n2C)CC1 : 1.0

// recorded SILAC ratio Ptrh2 for O=C(/C=C/c1cccnc1)NCCCCC1CCN(C(=O)c2ccccc2)CC1 [FK-866, reference compound] : 1.0

----------
Record form. Attribute: SILAC ratio, Scg3. Fill in for each entry.
# TEST SYSTEM: AEA-DA lipid probe targets in Neuro2a cells (Mus musculus, UniProt P47867)
# Sequence (P47867 23-471): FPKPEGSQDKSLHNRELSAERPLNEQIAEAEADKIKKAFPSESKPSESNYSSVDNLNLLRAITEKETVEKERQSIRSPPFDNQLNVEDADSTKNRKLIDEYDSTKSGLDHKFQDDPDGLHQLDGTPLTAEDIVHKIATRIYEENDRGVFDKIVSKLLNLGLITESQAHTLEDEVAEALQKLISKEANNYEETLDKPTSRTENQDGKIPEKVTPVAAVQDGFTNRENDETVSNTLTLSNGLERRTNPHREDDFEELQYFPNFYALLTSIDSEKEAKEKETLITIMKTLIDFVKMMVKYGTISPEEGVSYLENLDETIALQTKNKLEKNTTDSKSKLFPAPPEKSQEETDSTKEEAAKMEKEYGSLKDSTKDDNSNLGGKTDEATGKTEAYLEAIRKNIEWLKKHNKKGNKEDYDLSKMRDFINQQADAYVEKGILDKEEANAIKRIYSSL
# TEST SETTINGS: competitor 25 μM
One number for each entry.

O=C(/C=C/c1cccnc1)NCCCCC1CCN(C(=O)c2ccccc2)CC1 [FK-866, reference compound] : 1.0
CN1CCN(C(=O)c2[nH]c3ccc([N+](=O)[O-])cc3c2-c2ccccc2)CC1 [MJN228] : 1.3
C=CCN(C)CCCCCCOc1ccc(C(=O)c2ccc(Br)cc2)c(F)c1 [Ro 48-8071, reference compound] : 0.9

Next item in the queue.
So, CN1CCN(C(=O)c2c(-c3ccccc3)c3cc([N+](=O)[O-])ccc3n2C)CC1 [KML110] ? Its SILAC ratio, Scg3 was 1.0

----------
# TEST SYSTEM: AEA-DA lipid probe targets in Neuro2a cells (Mus musculus, UniProt P61759)
# Sequence (P61759 1-196): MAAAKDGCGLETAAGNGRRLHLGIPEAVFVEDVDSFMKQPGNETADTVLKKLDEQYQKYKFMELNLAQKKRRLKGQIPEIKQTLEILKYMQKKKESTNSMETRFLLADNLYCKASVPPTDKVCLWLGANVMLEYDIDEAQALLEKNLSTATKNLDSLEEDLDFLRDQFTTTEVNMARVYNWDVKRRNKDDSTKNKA
# TEST SETTINGS: competitor 25 μM
MEASUREMENT NAME: SILAC ratio, Vbp1
Numbers only.

Below are worked cases with known answers.
O=C(/C=C/c1cccnc1)NCCCCC1CCN(C(=O)c2ccccc2)CC1 [FK-866, reference compound] : 1.1
CN1CCN(C(=O)c2c(-c3ccccc3)c3cc([N+](=O)[O-])ccc3n2C)CC1 : 1.6
C=CCN(C)CCCCCCOc1ccc(C(=O)c2ccc(Br)cc2)c(F)c1 [Ro 48-8071, reference compound] : 0.9

Let us examine a further case.
The compound CN1CCN(C(=O)c2[nH]c3ccc([N+](=O)[O-])cc3c2-c2ccccc2)CC1 showed SILAC ratio, Vbp1 equal to 1.5

----------
# TEST SYSTEM: AEA-DA lipid probe targets in Neuro2a cells (Mus musculus)
# TEST SETTINGS: competitor 25 μM
MEASUREMENT NAME: SILAC ratio, Abhd6
One number for each entry.

C=CCN(C)CCCCCCOc1ccc(C(=O)c2ccc(Br)cc2)c(F)c1 [Ro 48-8071, reference compound] : 1.2
CN1CCN(C(=O)c2c(-c3ccccc3)c3cc([N+](=O)[O-])ccc3n2C)CC1 : 2.6
O=C(/C=C/c1cccnc1)NCCCCC1CCN(C(=O)c2ccccc2)CC1 [FK-866, reference compound] : 1.7

Here is another compound to look at.
Sample CN1CCN(C(=O)c2[nH]c3ccc([N+](=O)[O-])cc3c2-c2ccccc2)CC1 ; SILAC ratio, Abhd6 observed: 1.7

----------
# TEST SYSTEM: AEA-DA lipid probe targets in Neuro2a cells (Mus musculus, UniProt Q922Q8)
# Sequence (Q922Q8 whole entry): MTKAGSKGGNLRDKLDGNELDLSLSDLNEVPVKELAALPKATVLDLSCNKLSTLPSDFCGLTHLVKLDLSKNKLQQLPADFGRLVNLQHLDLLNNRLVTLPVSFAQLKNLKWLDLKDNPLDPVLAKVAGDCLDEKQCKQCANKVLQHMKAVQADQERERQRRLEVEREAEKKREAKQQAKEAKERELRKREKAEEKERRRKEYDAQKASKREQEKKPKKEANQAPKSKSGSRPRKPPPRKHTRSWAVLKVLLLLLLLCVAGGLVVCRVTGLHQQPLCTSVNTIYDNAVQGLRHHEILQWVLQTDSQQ
# TEST SETTINGS: competitor 25 μM
MEASUREMENT NAME: SILAC ratio Lrrc59

Could you tell me SILAC ratio Lrrc59 for each of these molecules? They are listed below.
1. CN1CCN(C(=O)c2[nH]c3ccc([N+](=O)[O-])cc3c2-c2ccccc2)CC1
2. C=CCN(C)CCCCCCOc1ccc(C(=O)c2ccc(Br)cc2)c(F)c1 [Ro 48-8071, reference compound]
3. O=C(/C=C/c1cccnc1)NCCCCC1CCN(C(=O)c2ccccc2)CC1 [FK-866, reference compound]

1: 1.5; 2: 1.2; 3: 1.2

Lab book: SILAC ratio Lrrc59 of CN1CCN(C(=O)c2c(-c3ccccc3)c3cc([N+](=O)[O-])ccc3n2C)CC1 noted as 1.3

----------
# TEST SYSTEM: humanized rat FAAH (Rattus norvegicus, UniProt P97612, A377T/F194Y/I491V/L192F/S435N/V495M)
# Sequence (P97612 30-579 L192F/F194Y/A377T/S435N/I491V/V495M limits assumed): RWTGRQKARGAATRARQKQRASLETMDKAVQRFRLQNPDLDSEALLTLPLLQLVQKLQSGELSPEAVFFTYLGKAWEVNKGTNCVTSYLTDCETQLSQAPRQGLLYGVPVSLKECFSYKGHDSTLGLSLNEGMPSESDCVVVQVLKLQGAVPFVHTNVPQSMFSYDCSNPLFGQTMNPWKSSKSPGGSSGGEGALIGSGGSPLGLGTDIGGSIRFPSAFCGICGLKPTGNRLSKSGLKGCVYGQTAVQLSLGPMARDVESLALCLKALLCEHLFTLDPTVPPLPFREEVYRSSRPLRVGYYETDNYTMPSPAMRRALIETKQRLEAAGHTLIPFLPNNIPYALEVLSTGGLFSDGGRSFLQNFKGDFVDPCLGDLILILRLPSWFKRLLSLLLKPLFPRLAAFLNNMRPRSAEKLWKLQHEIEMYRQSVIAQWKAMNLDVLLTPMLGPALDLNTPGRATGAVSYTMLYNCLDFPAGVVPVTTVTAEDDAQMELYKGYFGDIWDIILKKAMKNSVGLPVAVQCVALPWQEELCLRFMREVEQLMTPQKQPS
# ASSAY: FAAH activity by AEA hydrolysis, purified enzyme
# TEST SETTINGS: read-out: IC50 against purified recombinant FAAH
Could you please report measured IC50 for the items listed next?

CN1CCN(C(=O)c2c(-c3ccccc3)c3cc([N+](=O)[O-])ccc3n2C)CC1 : > 100 µM

Just so you know, measured IC50 for CN1CCN(C(=O)c2[nH]c3ccc([N+](=O)[O-])cc3c2-c2ccccc2)CC1 came out at > 100 µM

----------
# TEST SYSTEM: human NUCB1 (Homo sapiens, UniProt Q02818)
# Sequence (Q02818 27-461): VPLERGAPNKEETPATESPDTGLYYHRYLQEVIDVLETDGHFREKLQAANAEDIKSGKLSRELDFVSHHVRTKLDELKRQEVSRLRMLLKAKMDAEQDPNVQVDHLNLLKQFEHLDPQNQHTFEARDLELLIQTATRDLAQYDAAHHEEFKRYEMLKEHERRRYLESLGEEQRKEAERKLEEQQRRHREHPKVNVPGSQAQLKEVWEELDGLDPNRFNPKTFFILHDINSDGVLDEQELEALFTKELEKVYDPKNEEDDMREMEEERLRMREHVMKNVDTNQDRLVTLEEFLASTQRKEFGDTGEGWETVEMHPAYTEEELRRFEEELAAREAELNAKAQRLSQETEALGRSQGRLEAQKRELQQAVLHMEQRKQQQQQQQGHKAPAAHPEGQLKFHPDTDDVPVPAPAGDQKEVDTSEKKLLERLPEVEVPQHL
# ASSAY: In vitro gel-based competition of AEA-DA probe labeling of NUCB1
# TEST SETTINGS: AEA-DA 5 μM, recombinant NUCB1 0.25 μM doped into HEK293T lysates; percent of maximal competition; read-out: IC50, blockade of AEA-DA probe labeling of NUCB1
MEASUREMENT NAME: pIC50
Numbers only, as −log10 of the molar value.

Respectfully, I request pIC50 for each entry included below.
1. CN1CCN(C(=O)c2c(-c3ccccc3)c3cc([N+](=O)[O-])ccc3n2C)CC1
2. CN1CCN(C(=O)c2[nH]c3ccc([N+](=O)[O-])cc3c2-c2ccccc2)CC1

5.02
5.48

----------
Assign SILAC ratio Atp1a1 to each entry below.
# TEST SYSTEM: AEA-DA lipid probe targets in Neuro2a cells (Mus musculus)
# TEST SETTINGS: competitor 25 μM
Numbers only.

Some entries whose results are on file:
O=C(/C=C/c1cccnc1)NCCCCC1CCN(C(=O)c2ccccc2)CC1 [FK-866, reference compound] : 1.2
CN1CCN(C(=O)c2[nH]c3ccc([N+](=O)[O-])cc3c2-c2ccccc2)CC1 [MJN228] : 1.4
CN1CCN(C(=O)c2c(-c3ccccc3)c3cc([N+](=O)[O-])ccc3n2C)CC1 [KML110] : 1.2

Could you now look at the following molecule, please?
The measured SILAC ratio Atp1a1 associated with C=CCN(C)CCCCCCOc1ccc(C(=O)c2ccc(Br)cc2)c(F)c1 [Ro 48-8071, reference compound] reads 1.0

----------
Hi there, I'd appreciate the recorded SILAC ratio, Cpt2 for every entry that follows.
# TEST SYSTEM: AEA-DA lipid probe targets in Neuro2a cells (Mus musculus, UniProt P52825)
# Sequence (P52825 26-658): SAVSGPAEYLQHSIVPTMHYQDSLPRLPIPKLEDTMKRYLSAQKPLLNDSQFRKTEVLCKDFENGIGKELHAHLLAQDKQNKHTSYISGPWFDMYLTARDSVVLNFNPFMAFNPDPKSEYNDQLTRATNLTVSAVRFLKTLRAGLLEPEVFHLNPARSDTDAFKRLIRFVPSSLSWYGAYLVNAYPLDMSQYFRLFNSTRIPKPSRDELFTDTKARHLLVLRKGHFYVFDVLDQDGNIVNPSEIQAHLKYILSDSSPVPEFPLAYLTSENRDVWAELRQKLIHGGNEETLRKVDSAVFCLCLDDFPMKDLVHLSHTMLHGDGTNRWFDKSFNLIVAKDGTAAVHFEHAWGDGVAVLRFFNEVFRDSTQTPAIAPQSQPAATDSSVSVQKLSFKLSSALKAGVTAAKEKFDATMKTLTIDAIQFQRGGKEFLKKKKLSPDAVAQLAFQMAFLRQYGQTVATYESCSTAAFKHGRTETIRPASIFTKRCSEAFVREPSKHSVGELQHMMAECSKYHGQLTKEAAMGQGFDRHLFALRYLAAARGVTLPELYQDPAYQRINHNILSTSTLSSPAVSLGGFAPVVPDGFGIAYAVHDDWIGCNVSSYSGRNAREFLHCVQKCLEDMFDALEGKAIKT
# TEST SETTINGS: competitor 25 μM
One number for each entry.

C=CCN(C)CCCCCCOc1ccc(C(=O)c2ccc(Br)cc2)c(F)c1 [Ro 48-8071, reference compound] : 2.1

Kindly give each listed record's SILAC ratio, Cpt2.
1. O=C(/C=C/c1cccnc1)NCCCCC1CCN(C(=O)c2ccccc2)CC1 [FK-866, reference compound]
2. CN1CCN(C(=O)c2[nH]c3ccc([N+](=O)[O-])cc3c2-c2ccccc2)CC1
3. CN1CCN(C(=O)c2c(-c3ccccc3)c3cc([N+](=O)[O-])ccc3n2C)CC1

1. 3.1
2. 1.7
3. 1.5

----------
# TEST SYSTEM: AEA-DA lipid probe targets in Neuro2a cells (Mus musculus, UniProt Q8VE88)
# Sequence (Q8VE88 whole entry): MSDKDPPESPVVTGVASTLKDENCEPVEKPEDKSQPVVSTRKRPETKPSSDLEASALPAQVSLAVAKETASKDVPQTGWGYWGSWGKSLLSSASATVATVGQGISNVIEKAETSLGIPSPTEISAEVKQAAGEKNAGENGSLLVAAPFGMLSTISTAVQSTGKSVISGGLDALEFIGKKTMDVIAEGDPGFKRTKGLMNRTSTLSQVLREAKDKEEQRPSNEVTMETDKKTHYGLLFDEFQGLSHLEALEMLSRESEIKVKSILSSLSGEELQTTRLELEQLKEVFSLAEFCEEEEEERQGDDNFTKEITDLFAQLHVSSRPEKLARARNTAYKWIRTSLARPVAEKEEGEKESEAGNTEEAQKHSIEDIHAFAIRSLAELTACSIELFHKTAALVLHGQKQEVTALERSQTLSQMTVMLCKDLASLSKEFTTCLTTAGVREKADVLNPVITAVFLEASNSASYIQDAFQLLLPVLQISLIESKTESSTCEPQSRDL
# TEST SETTINGS: competitor 25 μM
Record form. Attribute: SILAC ratio, Fam114a2. Fill in for each entry.
Answers are plain numbers.

CN1CCN(C(=O)c2c(-c3ccccc3)c3cc([N+](=O)[O-])ccc3n2C)CC1 : 2.2

Each compound below has a reported value. Please supply its SILAC ratio, Fam114a2.
1. CN1CCN(C(=O)c2[nH]c3ccc([N+](=O)[O-])cc3c2-c2ccccc2)CC1
2. O=C(/C=C/c1cccnc1)NCCCCC1CCN(C(=O)c2ccccc2)CC1 [FK-866, reference compound]
3. C=CCN(C)CCCCCCOc1ccc(C(=O)c2ccc(Br)cc2)c(F)c1 [Ro 48-8071, reference compound]

1. 3.5
2. 1.0
3. 1.6

----------
Can you tell me SILAC ratio Dctpp1 for the items I'm about to list?
# TEST SYSTEM: AEA-DA lipid probe targets in Neuro2a cells (Mus musculus)
# TEST SETTINGS: competitor 25 μM
One number for each entry.

Batch of 3 compounds: report SILAC ratio Dctpp1 for each.
1. CN1CCN(C(=O)c2c(-c3ccccc3)c3cc([N+](=O)[O-])ccc3n2C)CC1
2. CN1CCN(C(=O)c2[nH]c3ccc([N+](=O)[O-])cc3c2-c2ccccc2)CC1
3. C=CCN(C)CCCCCCOc1ccc(C(=O)c2ccc(Br)cc2)c(F)c1 [Ro 48-8071, reference compound]

1. 1.6
2. 1.2
3. 0.8

Record summary for O=C(/C=C/c1cccnc1)NCCCCC1CCN(C(=O)c2ccccc2)CC1 [FK-866, reference compound] : reported SILAC ratio Dctpp1 = 1.4
